Hello, the source for this data is paper PMC5261807, in case you need it.

- TARGET SYSTEM: T1, Bdf1 bromodomain 2 (GST-tagged, WT) (Saccharomyces cerevisiae (strain ATCC …, UniProt P35817))
- T1 chain: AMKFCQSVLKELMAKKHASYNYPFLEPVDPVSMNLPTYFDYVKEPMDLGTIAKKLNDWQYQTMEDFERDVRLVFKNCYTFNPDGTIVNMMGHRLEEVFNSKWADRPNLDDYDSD
- EXPERIMENT: histone peptide array probed with recombinant GST-bromodomain, signal normalised to myc peptide control
Non-standard residues stand in square brackets, D forms with d. No end group written: not given here. Arg(Me2a) = CN(C)C(=N)NCCC[C@H](N)C(=O)O; Me2s = symmetric dimethyl (on Arg); Me3 = trimethyl (on Lys)
PROPERTY LABEL: binding score

P. ARTK(Me3)QTAR(Me2s)K(Me)STGGKAPRKQ
Q. ARTKQTARKSTGGKAPRKQ (A R T Kme2 Q T A Rme2a Kac S T G G K A P R K Q)
Please state the entry with greater binding score among P and Q . Mark your selection by writing its label.
Q
(Q: 0.00915, P: 0)

A. ARTKQTARKSTGGKAPRKQ (A R T Kme3 Q T A Rme2s Kme3 S T G G K A P R K Q)
B. A[Arg(Me2a)]TK(Ac)QTARKSTGGKAPRKQ
Please state the entry with greater binding score among A and B . Mark your selection by writing its label.
B
